target: Aβ1-40 peptide (monomeric start material of the nucleation assay); assay: cell-based or functional assay
Square brackets hold non-standard residues; d marks the D form. Ends that are not written are not given here. * marks the point of attachment. NHiPr = CC(C)N*
Below, each entry is listed alongside its reported Nucleation assay Δ lag at 5 µM compound.

binder	Nucleation assay Δ lag at 5 µM compound
{N,N‑diethyl}-[dA][dF][dF][dV][dL]-NH2 (also: TFA salt) [PPI-1006: TFA • N,N-diethyl-(affvl)-NH2]	1 ratio of lag time to control
G[dA][dF][dF][dV][dL]-NH2 (not fully specified (N-terminus); printed as N-isopropyl-(Gly-D-Ala-D-Phe-D-Phe-D-Val-D-Leu)-NH2; also: TFA salt) [PPI-970: TFA • N-isopropyl-(Gaffvl)-NH2]	> 5 ratio of lag time to control
{N,N‑dimethyl}-[dA][dF][dF][dV][dL]-NH2 (also: TFA salt) [PPI-913: TFA • N,N-dimethyl-(affvl)-NH2]	1 ratio of lag time to control
{N,N‑dimethyl}-G[dA][dF][dF][dV][dL]-NH2 (also: TFA salt) [PPI-803: TFA • N,N-dimethyl-(Gaffvl)-NH2]	< 1 ratio of lag time to control
H-[dL][dV][dF][dF][dA]-NHiPr (also: TFA salt) [PPI-992: TFA • H-(lvffa)-isopropylamide]	3 ratio of lag time to control
